Attribution: PubChem BioAssay

# Lookup of reported z-score keyed by entry
target: NADPH oxidase 2 (Homo sapiens) (UniProt P04839); experiment: NOX2-dependent H2O2 signal modulators, primary screen, NOX inhibitor project, cell-based, HEK293-NOX2, PMA-stimulated, Amplex Red fluorescence (AID 1159); details: 45 min, higher = more signal, called active from +8 up or from −8 down; further: test concentration not given here
Sequence (P04839 whole entry, looked up): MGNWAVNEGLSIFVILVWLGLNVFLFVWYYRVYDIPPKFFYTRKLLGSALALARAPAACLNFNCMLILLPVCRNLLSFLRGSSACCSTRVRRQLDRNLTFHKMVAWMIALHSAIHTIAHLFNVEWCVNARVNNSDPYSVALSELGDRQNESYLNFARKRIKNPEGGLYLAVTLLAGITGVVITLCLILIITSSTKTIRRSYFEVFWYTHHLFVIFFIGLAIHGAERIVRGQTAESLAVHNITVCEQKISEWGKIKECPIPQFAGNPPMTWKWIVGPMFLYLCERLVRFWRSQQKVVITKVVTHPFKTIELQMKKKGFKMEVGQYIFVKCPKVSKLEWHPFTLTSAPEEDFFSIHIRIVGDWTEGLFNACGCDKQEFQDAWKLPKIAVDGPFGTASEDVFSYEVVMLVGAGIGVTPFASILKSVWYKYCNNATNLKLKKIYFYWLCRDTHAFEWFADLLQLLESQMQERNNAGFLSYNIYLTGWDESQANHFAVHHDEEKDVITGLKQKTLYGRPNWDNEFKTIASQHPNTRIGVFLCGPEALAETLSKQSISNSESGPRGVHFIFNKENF
Answer field: number only, no words.

Example cases with answers are listed next.
COc1ccc([Si](C)(C)[C@H]2[C@H](CCn3cc([C@H](O)c4ccccc4)nn3)O[C@@]3(C(=O)N(c4ccccc4)c4ccccc43)[C@@H]2C)cc1 :: 1.47
O=C1OCCC/C=C\[C@H]2OC34C=CCN(Cc5ccccc5)C(=O)[C@H]3N(CCCCCO)C(=O)[C@@H]4C12 (stereo partly drawn) :: 1.17
CC(C)C[C@H]1NC(=O)[C@@]23C(=O)N[C@@H](Cc4ccccc4)C2[C@H](C)[C@@]2(C)O[C@H]2C3/C=C/C/C=C\CNC(=O)[C@@H]2CCCN2C1=O (stereo partly drawn) :: 0.708
C=CCNC(=O)[C@@H]1[C@H]2C(=O)O[C@H](c3ccccc3)[C@H](c3ccccc3)N2[C@H](c2ccccc2OCCO)[C@@]12C(=O)N(C(=O)OCCOC)c1ccc(C#CCCO)cc12 :: 1.57

Query: Given the entry COCCOC(=O)N1C(=O)[C@@]2(c3cc(C#CCCO)ccc31)[C@H](C(=O)N1CCN(c3ncccn3)CC1)[C@H]1C(=O)O[C@H](c3ccccc3)[C@H](c3ccccc3)N1[C@@H]2c1ccc(O)cc1 , report its measured z-score.
Response: 1.69

Query: Sample CO[C@H]1O[C@H](CO)[C@@H](OC(=O)Nc2ccc(C(F)(F)F)cc2)[C@H](OC(=O)Nc2ccccc2-c2ccccc2)[C@H]1OC(=O)Nc1ccccc1-c1ccccc1 — what was its z-score?
Response: -3.25

Query: // z-score lookup, key: Cc1ccc(S[C@]2(C(=O)NC3CC3)CC(=O)N(Cc3cc(C(F)(F)F)cc(C(F)(F)F)c3)[C@@H]2c2ccc(CO)cc2I)cc1
Response: 1.52

Query: So what's the measured z-score for this one? COC(=O)C1=CC(CCCO)=CC(c2ccc(CN3CCCC3)cc2)N(Cc2sc3ccccc3c2Cl)C=C1C(=O)OC (stereo not drawn)
Response: 0.613

Query: // query z-score value for entry C#CCN(C/C=C/c1ccccc1)[C@H](CO[Si](C)(C)C(C)(C)C)c1ccccc1
Response: 1.64

Query: Consider the compound COC(=O)[C@H](Cc1ccc(O)cc1)N1CC2=CCCC=C[C@@H]2[C@H]1[C@H](O)Cc1ccccc1 and give its measured z-score.
Response: 0.63

Query: Which z-score reading was recorded for the compound CCOC(=O)C1=CC[C@@H](c2ccc(F)cc2)N(S(=O)(=O)c2ccc(C)cc2)[C@H]1c1ccc([N+](=O)[O-])cc1 ?
Response: 1.36

Query: Report z-score for CN1C(=O)[C@]2(CCC(=O)OC(C)(C)C)N=C(c3ccc(OCCCO)cc3)O[C@@H]2c2ccccc21 please.
Response: -2.09

Query: Query (compound): COCCOC(=O)N1C(=O)[C@@]2(c3cc(C#CC4(O)CCCCCC4)ccc31)[C@H](c1ccc(OCCO)cc1)N1[C@H](c3ccccc3)[C@H](c3ccccc3)OC(=O)[C@H]1[C@@H]2C(=O)N1CCCCCCC1 ; field requested: z-score
Response: 0.707

----------
test: E. coli DRC41 culture turbidity changes, primary screen, E. coli filamentation inducer project, strain DRC41, OD650, 48 h (AID 1152);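 further: E. coli MC1000 strain DRC41 lacking acrAB efflux pump and sulA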; conditions: E. coli DRC41 (acrAB sulA), higher = more signal, called active from +8 up or from −8 down
Measurement type: z-score
Note: the reply should be a number with no unit written.

The following compounds have reported results that may help.
C[C@H]1NC(=O)C([C@@H](C)OCc2ccccc2)NC(=O)[C@@]23C(=O)N[C@@H](Cc4ccccc4)C2[C@H](C)[C@@]2(C)O[C@H]2C3/C=C/C/C=C\CNC1=O (some centres not stated) :: -0.009
CCOC(=O)C1=CCC(c2cc3ccccc3[nH]2)N(S(=O)(=O)c2ccccc2[N+](=O)[O-])C1 (configuration not stated) :: -0.485
CCCCC(=C=CC[C@@H](O)c1cccc(OCCO)c1)C[C@@H](O)COCc1ccccc1 :: 1.76
CC(=O)NCCCC[C@@H]1NC(=O)[C@@H]2C[C@H](C(=O)NCCCCCC[N+](C)(C)C)[C@H](c3ccc(O)cc3)N2C1=O :: -0.303
COc1cc2c(cc1O)C(c1ccc(CN3CCCC3)cc1)N(Cc1ccc([N+](=O)[O-])o1)CC2 (configuration not stated) :: -0.715
CC(C)C[C@H]1NC(=O)[C@@H](C)NC(=O)[C@@]23C(=O)N[C@@H](Cc4ccccc4)C2[C@H](C)[C@@]2(C)O[C@H]2C3/C=C/C/C=C\CNC1=O (some centres not stated) :: -0.743

Query: Any idea what z-score was measured for COc1ccc([Si](C)(C)[C@H]2[C@H](CCn3cc([C@H](O)c4ccccc4)nn3)O[C@@]3(C(=O)N(C)c4c(Br)cc(C)cc43)[C@@H]2C)cc1 ?
Response: 0.45

----------
molecular target: Alpha-bungarotoxin (Bungarus multicinctus); experiment: alpha-bungarotoxin binders on microarray, profiling panel, artefact control for SMM control protein annotation, biochemical, small-molecule microarray, Alexa647 label, 635/667 nm fluorescence (AID 1117); conditions: alpha-BTX-A647 binding fluorescence, higher = more signal
Listed next: entries and their corresponding composite z-score.
Just the number, please, no unit attached.

Worked cases, composite z-score given:
CC(C)(C)OC(=O)CC[C@]1(C(=O)N2CCOCC2)N=C(c2ccc(OCCCO)cc2)O[C@H]1c1ccccc1CN=[N+]=[N-] :: 1.68
CCOC(=O)C[C@H]1[C@H](OC(=O)c2ccc(-c3ccccc3)cc2)[C@@H](NC(=O)CC(C)C)c2cc(OCCCO)ccc2N1C(=O)Cc1ccc(OC)cc1 :: 0.446
COCCOC(=O)N1C(=O)[C@@]2(c3cc(C#CC4(O)CCCCCC4)ccc31)[C@H](c1ccc(OCCO)cc1)N1[C@H](c3ccccc3)[C@H](c3ccccc3)OC(=O)[C@H]1[C@@H]2C(=O)N1CCCCCCC1 :: 1.89
COC(=O)[C@@]1(Cc2ccc(F)cc2)[C@H]2c3cc(C(=O)N(C)C)n(CCO)c3C[C@H]2CN1C(=O)c1ccccc1 :: -0.148
COc1cc(OC)c(C(O)C2C=CC3C(=O)N(c4ccccc4)C(=O)C3N2Nc2ccccc2F)cc1Br (stereo not given) :: 1.92
C=C(CC1([C@@H](NP(=O)(c2ccccc2)c2ccccc2)[C@H]2C[C@@H]2CCN(C(=O)OCC)S(=O)(=O)c2ccc(C)cc2)CC1)c1ccccc1 :: 0.749

Query: GET /values?readout=composite z-score&system=Alpha-bungarotoxin (Bungarus multicinctus)&item= COc1ccc(NN2C(C(O)c3ccc(OC)cc3)C=CC3C(=O)N(C4CCCCC4)C(=O)C32)cc1 (stereo not given)
Response: 1.08

Query: I'm curious: which composite z-score was measured for C[C@H]1C2[C@H](Cc3ccccc3)NC(=O)[C@]23C(=O)NCC(=O)N2CCC[C@H]2C(=O)NC/C=C\C/C=C/C3[C@@H]2O[C@]12C (stereo not given in full) tested on Alpha-bungarotoxin (Bungarus multicinctus)?
Response: -0.246

Query: Recall the recorded composite z-score for CC(C)C[C@@H]1NC(=O)[C@@H]2C[C@H](C(=O)O)[C@H](c3ccc(O)cc3)N2C1=O with Alpha-bungarotoxin (Bungarus multicinctus) and state it.
Response: 1.64

Query: API: value(readout=composite z-score, system=Alpha-bungarotoxin (Bungarus multicinctus)) for record C=CC[C@]1(C(=O)OC)N=C(c2ccc(OCCCO)cc2)O[C@H]1c1ccccc1N=[N+]=[N-]
Response: 0.935

Query: API: value(readout= composite z-score, system= Alpha-bungarotoxin (Bungarus multicinctus), query= CCCCC(O)C1C=CC2C(=O)NC(=O)C2N1Nc1ccc(Cl)cc1Cl (stereo not given) )
Response: 1.1

Query: Notebook entry, Alpha-bungarotoxin (Bungarus multicinctus) assay: composite z-score of CCCC[C@H]1OB(O)C[C@H]2C1=C(C)C[C@H]1C(=O)C=CC(=O)[C@H]12 = ?
Response: 0.178

Query: Please provide the recorded composite z-score for CCCC=C(CCC)[C@@H](NS(=O)(=O)c1ccc(Cl)cc1)c1ccccc1 , tested on Alpha-bungarotoxin (Bungarus multicinctus).
Response: 0.64

Query: Look up composite z-score with Alpha-bungarotoxin (Bungarus multicinctus) for this compound: COCCOC(=O)N1C(=O)[C@@]2(c3cc(C#CCC(C(=O)OC)C(=O)OC)ccc31)[C@H](c1ccc(OCCO)cc1)N1[C@H](c3ccccc3)[C@H](c3ccccc3)OC(=O)[C@H]1[C@@H]2C(=O)N1CCCCCCC1
Response: 2.32

Query: Recorded composite z-score for C=C(C(=O)CC[C@@H](OC(C)=O)c1cccc(OCCO)c1)C(C)C with Alpha-bungarotoxin (Bungarus multicinctus), please?
Response: 0.221
